MIC values, listed per item
# Test system: Staphylococcus epidermidis
# EXPERIMENTAL_PROTOCOL: In vitro antibacterial activity against Staphylococcus epidermis (S.e.1) […].
# Type: functional
API: value field is a number in µg/mL; no unit string.

CC(=O)NC[C@H]1CN(c2ccc(N3CCN(C(=O)c4cccs4)CC3)c(F)c2)C(=O)O1 = 0.5
CC(=O)NC[C@H]1CN(c2ccc(N3CCN(C(=O)c4cc(C(N)=O)no4)CC3)c(F)c2)C(=O)O1 = 0.5
CC(=O)NC[C@H]1CN(c2ccc(N3CCN(Cc4cc(C)no4)CC3)c(F)c2)C(=O)O1 = 16
CC(=O)NC[C@H]1CN(c2ccc(N3CCN(Cc4cc(-c5ccc(C)cc5)no4)CC3)c(F)c2)C(=O)O1 = 4
COc1ccc(-c2cc(CN3CCN(c4ccc(N5C[C@H](CNC(C)=O)OC5=O)cc4F)CC3)on2)cc1OC = 2
CC(=O)NC[C@H]1CN(c2ccc(N3CCN(Cc4cc(-c5cccs5)no4)CC3)c(F)c2)C(=O)O1 = 4

QUERY: Name the reported MIC value associated with the compound CC(=O)NC[C@H]1CN(c2ccc(N3CCN(C(=O)c4cc(COC(=O)N(C)C)no4)CC3)c(F)c2)C(=O)O1
RESULT: 1

QUERY: Please answer likewise for CC(=O)NC[C@H]1CN(c2ccc(N3CCN(Cc4cc(-c5ccc(C#N)cc5)no4)CC3)c(F)c2)C(=O)O1
RESULT: 4
